Entry source: patent US20130090364A1

# Test system: sub-genomic HCV replicon of genotype 1a
# assay procedure: ELISA (NS5A protein level) in sub-genomic replicon 1a cell line W11.8
# Type: cell-based
# measurement conditions: Hepatitis C virus, W11.8, Table 4
endpoint name: IC50 (nM)
Express your answer in nM, writing the number without its unit.

Task item: Entry COC(=O)N[C@H](C(=O)N1C[C@@H](C)C[C@H]1c1nc2sc(-c3ccc(-c4ccc5[nH]c([C@@H]6CC[C@H](C)N6C(=O)[C@@H](NC(=O)OC)C(C)C)nc5c4)cc3)cc2[nH]1)C(C)C , system sub-genomic HCV replicon of genotype 1a: what IC50 was measured?
Reply: 0.619

Task item: Missing value: IC50, sub-genomic HCV replicon of genotype 1a, entry COC(=O)NC(C(=O)N1C[C@@H](C)C[C@H]1c1nc2sc(-c3ccc(-c4ccc5[nH]c([C@@H]6C[C@H](C)CN6C(=O)[C@@H](NC(=O)OC)C(C)C)nc5c4)cc3)cc2[nH]1)C(C)C (some centres unmarked) . Fill in?
Reply: 1.65

* * *

# Test system: sub-genomic HCV replicon of genotype 1a
# assay procedure: ELISA (NS5A protein level) in sub-genomic replicon 1a cell line W11.8
# Type: cell-based
# measurement conditions: Hepatitis C virus, W11.8, read-out: EC50 (μM) (1a), Table 3
Let's look at some compounds and their measured EC50.
Reply numerically in µM, unit not repeated.

* COC(=O)N[C@H](C(=O)N1CCC[C@H]1c1nc2sc(C#CC#Cc3cc4[nH]c([C@@H]5CCCN5C(=O)[C@@H](NC(=O)OC)C(C)C)nc4s3)cc2[nH]1)C(C)C [Compound 3b] | 0.282
* COC(=O)N[C@H](C(=O)N1CCCC1c1nc2cc(C#Cc3cc4[nH]c([C@@H]5CCCN5C(=O)[C@@H](NC(=O)OC)C(C)C)nc4s3)ccc2[nH]1)C(C)C (stereo partly shown) [Compound 1b] | 0.828
* COC(=O)N[C@H](C(=O)N1C[C@@H](C)C[C@H]1c1nc2sc(C#CC#Cc3cc4[nH]c([C@@H]5C[C@H](C)CN5C(=O)[C@@H](NC(=O)OC)C(C)C)nc4s3)cc2[nH]1)C(C)C [Compound 4b] | 0.184

Task item: GET /values?readout=EC50&item= COC(=O)N[C@H](C(=O)N1C[C@@H](C)C[C@H]1c1nc2cc(C#Cc3cc4[nH]c([C@@H]5C[C@H](C)CN5C(=O)[C@@H](NC(=O)OC)C(C)C)nc4s3)ccc2[nH]1)C(C)C [Compound 2b]
Reply: 0.0403
